Test system: T1, recombinant human MUC1-SEA (MUC1 antigen, Acrobiosystems, Cat: MU1-H52H9) (human, UniProt P15941 1039-1158)
T1 construct: Bought protein, captured on an anti-His chip (so His-tagged)
T1 sequence: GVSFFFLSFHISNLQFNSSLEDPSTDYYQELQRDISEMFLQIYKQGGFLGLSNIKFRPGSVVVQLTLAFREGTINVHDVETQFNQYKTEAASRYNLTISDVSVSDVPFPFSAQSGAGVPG
Assay comment: SPR; MUC1 antigen captured on anti-His CM5 chip, antibody as analyte
Readout: Kd (nM)
Please respond with the number in nM and leave the unit unwritten.

Reference set (3 entries):
HM5 LM3 variant of humanized anti-MUC1 antibody SP66 (antibody, V domains shown, Humanized IgG expressed in CHO cells; only variable domains tied to the variant) VH: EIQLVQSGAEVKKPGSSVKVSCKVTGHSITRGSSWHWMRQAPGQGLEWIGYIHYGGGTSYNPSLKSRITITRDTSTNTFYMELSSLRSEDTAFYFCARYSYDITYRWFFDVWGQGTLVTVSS VL: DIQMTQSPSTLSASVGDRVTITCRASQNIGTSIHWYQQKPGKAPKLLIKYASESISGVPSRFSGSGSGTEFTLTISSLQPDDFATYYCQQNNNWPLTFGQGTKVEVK: 0.05
humanized IgG1 anti-MUC1-SEA mAb (HM5 LM4) (antibody, V domains shown, also called Humanized anti-MUC1 SEA IgG1; humanized IgG anti-MUC1-SEA mAb) VH: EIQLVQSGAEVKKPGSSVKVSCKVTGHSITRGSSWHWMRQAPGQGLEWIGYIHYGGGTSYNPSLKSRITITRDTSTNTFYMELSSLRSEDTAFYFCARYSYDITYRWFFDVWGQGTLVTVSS VL: DIQMTQSPSTLSASVGDRVTITCRASQNIGTSIHWYQQKPGKAPKLLIKYASESISGVPSRFSGSGSGTEFTLTISSLQPDDFATYYCQQNNNWPLTFGQGTKVEIKR: 0.0298
HM4 LM2 variant of humanized anti-MUC1 antibody SP66 (antibody, V domains shown, Humanized IgG expressed in CHO cells; only variable domains tied to the variant) VH: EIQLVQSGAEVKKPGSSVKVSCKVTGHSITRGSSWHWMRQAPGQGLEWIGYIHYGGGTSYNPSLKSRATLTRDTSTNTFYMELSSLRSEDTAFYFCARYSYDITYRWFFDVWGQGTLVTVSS VL: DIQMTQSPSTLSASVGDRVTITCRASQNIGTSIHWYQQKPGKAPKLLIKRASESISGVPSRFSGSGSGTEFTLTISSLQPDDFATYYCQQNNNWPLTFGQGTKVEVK: 0.0639

// next item, Kd requested
Q: Kd for HM3 LM2 variant of humanized anti-MUC1 antibody SP66 (antibody, V domains shown, Humanized IgG expressed in CHO cells; only variable domains tied to the variant) VH: EIQLVQSGAEVKKPGSSVKVSCKVTGHSITRGSSWHWMRQAPGQGLEWIGYIHYGGGTSYNPSLKSRATLTRDTSTNTAYMELSSLRSEDTAFYFCARYSYDITYRWFFDVWGQGTLVTVSS VL: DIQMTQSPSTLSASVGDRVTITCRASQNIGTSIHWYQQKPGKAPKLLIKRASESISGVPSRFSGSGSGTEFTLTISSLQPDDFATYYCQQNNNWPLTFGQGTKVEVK ?
A: 0.186

Value source: patent US20250041437A1
